Below: a set of entries, each annotated with reported URIC ACID.
# Species: Rattus norvegicus
# experiment summary: DrugMatrix - Regimen: Daily Repeat
# Format: toxicity, organism-based, Sprague-Dawley
# Design: regimen Daily Repeat, gender Male, age 6-8 weeks
# test settings: in vivo, po, 0 mg/kg, 72 h, tissue Plasma, route oral GAVAGE, dose level Control, time 3 day, […]
recorded endpoint: URIC ACID (mg/dL)

compound	units of measure	assay result
COc1ncnc(NS(=O)(=O)c2ccc(N)cc2)c1OC [SULFADOXINE]	mg/dL	0.48
NC[C@@H]1O[C@H](O[C@H]2[C@@H](O)[C@H](O[C@@H]3[C@@H](O)[C@H](N)C[C@H](N)[C@H]3O[C@H]3O[C@H](CN)[C@@H](O)[C@H](O)[C@H]3N)O[C@@H]2CO)[C@H](N)[C@@H](O)[C@@H]1O [FRAMYCETIN]	mg/dL	0.68
CC(=O)Nc1nnc(S(N)(=O)=O)s1 [ACETAZOLAMIDE]	mg/dL	0.48
CC(C)Cc1ccc(CC(=O)O)cc1 [IBUFENAC]	mg/dL	1.78
CC(CCc1ccc(O)cc1)NCCc1ccc(O)c(O)c1 (stereo unspecified) [DOBUTAMINE]	mg/dL	0.83
CC[C@H](C)C(=O)O[C@H]1C[C@H](O)C=C2C=C[C@H](C)[C@H](CC[C@@H](O)C[C@@H](O)CC(=O)O)[C@H]21 [PRAVASTATIN]	mg/dL	0.5
C#C[C@]1(O)CC[C@H]2[C@@H]3CCc4cc(O)ccc4[C@H]3CC[C@@]21C [ETHINYL ESTRADIOL]	mg/dL	1.37
CCn1cc(C(=O)O)c(=O)c2cc(F)c(N3CCNCC3)nc21 [ENOXACIN]	mg/dL	1.37
OCCN1CCN(CCCN2c3ccccc3Sc3ccc(C(F)(F)F)cc32)CC1 [FLUPHENAZINE]	mg/dL	0.8
CN(CCOc1ccc(CC2SC(=O)NC2=O)cc1)c1ccccn1 (stereo unspecified) [ROSIGLITAZONE]	mg/dL	0.5
CC[C@H](C)C(=O)O[C@H]1C[C@@H](C)C=C2C=C[C@H](C)[C@H](CC[C@@H]3C[C@@H](O)CC(=O)O3)[C@H]21 [LOVASTATIN]	mg/dL	0.93

----------
# Organism: Rattus norvegicus
# experiment summary: DrugMatrix - Regimen: Daily Repeat
# Format: toxicity, organism-based, Sprague-Dawley
# Parameters: regimen Daily Repeat, gender Male, age 6-8 weeks
# test settings: in vivo, po, 0 mg/kg, 120 h, tissue Plasma, route oral GAVAGE, dose level Control, time 5 day, […]
Lab note: cut-off is 6 G/DL. Strictly less in TOTAL PROTEIN is t. Exactly 6 G/DL or more is f.

                                   compound  label_class
0  C#C[C@]1(O)CC[C@H]2[C@@H]3CCc4cc(O)ccc4[C@H]3CC[C@@]21C            t
1  CC[C@H](C)C(=O)O[C@H]1C[C@@H](C)C=C2C=C[C@H](C)[C@H](CC[C@@H]3C[C@@H](O)CC(=O)O3)[C@H]21            t
2  CN(CCOc1ccc(CC2SC(=O)NC2=O)cc1)c1ccccn1 (centres undefined)            t
3  CC(CCc1ccc(O)cc1)NCCc1ccc(O)c(O)c1 (centres undefined)            f
4  CCn1cc(C(=O)O)c(=O)c2cc(F)c(N3CCNCC3)nc21            t
